This collection of values is drawn from patent US20260217698A1.

# Experiment Description: Solubility test in buffer, LC-MS
# Assay type: physicochemical
# Setup Conditions: aqueous buffer, thermodynamic from solid, room temperature, shaking 8 h, pH not given (method: pH 2.0, 6.5, 7.4)
Metric: solubility at 8 h (µg/mL)
API: value field is a number in µg/mL; no unit string.

1. CNC(=O)c1cccc(COc2nsc(NC(=O)NCCCCN3CCCC3)c2C(N)=O)c1 [Compound T049]	2310
2. NC(=O)c1c(OCc2cc(C(=O)NC3CC3)ccc2F)nsc1NC(=O)NCCCN1CC[C@@H](F)C1 [Compound T122]	1280
3. NC(=O)c1c(OCc2c(F)ccc(C(=O)NC3CC3)c2F)nsc1NC(=O)NCCCCN1CCCC1 [Compound T124]	1950
4. CN1CCN(CCNC(=O)Nc2snc(OCc3cccc(C(=O)NC4CC4)c3)c2C(N)=O)CC1 [Compound T065]	782
5. CN1CCN(CCCNC(=O)Nc2snc(OCc3cccc(C(=O)NC4CC4)c3)c2C(N)=O)CC1 [Compound T069]	633
6. NC(=O)c1c(OCc2ccc(F)c(C(=O)NC3CC3)c2)nsc1NC(=O)NCCCCN1CCCC1 [Compound T151]	1340

Recorded result, NC(=O)c1c(OCc2ccc3c(c2)COC3)nsc1NC(=O)NCCCCN1CCCC1 [Compound T072] , solubility at 8 h: 2060

Recorded result, NC(=O)c1c(OCc2ccc3c(c2)OCO3)nsc1NC(=O)NCCCCN1CCCC1 [Compound T007] , solubility at 8 h: 608

---

# Experiment Description: Solubility test in buffer, LC-MS
# Format: physicochemical
# Setup Conditions: aqueous buffer, thermodynamic from solid, room temperature, shaking 8 h, pH not given (method: pH 2.0, 6.5, 7.4)
Metric: solubility at 8 h (µg/mL)
API: value field is a number in µg/mL; no unit string.

The cases that follow already have their solubility at 8 h on record.
1) COc1cc(COc2nsc(NC(=O)NCCCCN3CC[C@@H](F)C3)c2C(N)=O)cc(OC)c1	400
2) COc1ccc(F)c(COc2nsc(NC(=O)NCCCCN3CCCCC3)c2C(N)=O)c1F	278

Recorded result, `CN1CCN(CCCNC(=O)Nc2snc(OCc3cc(C(=O)NC4CC4)ccc3F)c2C(N)=O)CC1` , solubility at 8 h: 2050

Recorded result, `NC(=O)c1c(OCc2cccc(C(=O)NC3CC3)c2)nsc1NC(=O)NCCCN1CCCC1` , solubility at 8 h: 977

Recorded result, `CNC(=O)c1cc(COc2nsc(NC(=O)NCCCCN3CCCC3)c2C(N)=O)ccc1F` , solubility at 8 h: 927

Recorded result, `NC(=O)c1c(OCc2cc(C(=O)NC3CC3)cc(F)c2F)nsc1NC(=O)NCCCCN1CCCC1` , solubility at 8 h: 757

Recorded result, `NC(=O)c1c(OCc2ccc3c(c2)OCC3)nsc1NC(=O)NCCCCN1CCCC1` , solubility at 8 h: 820

Recorded result, `NC(=O)c1c(OCc2ccc(F)c(C(=O)NC3CC3)c2)nsc1NC(=O)NCCCN1CC[C@H](F)C1` , solubility at 8 h: 815

---

# System: melanin
# Experiment Description: Binding capacity of compounds to melanin
# Assay type: in vitro ADME, cuttlefish (Sepia officinalis)
# Setup Conditions: cuttlefish (Sepia officinalis), melanin suspension (1 mg/mL); 1 mg/mL melanin in PBS pH 7.4, 2 μM compound, 2 h at 37° C.; read-out: Fu % (percentage of free drug)
Label Y when fraction unbound at 2 h, 2 μM is at or above 0.08; otherwise label N.

The following molecules have reported results that may help.
1. CN1CCN(CCCNC(=O)Nc2snc(OCc3cc(C(=O)NC4CC4)ccc3F)c2C(N)=O)CC1 [Compound T118]	Y
2. NC(=O)c1c(OCc2cc3c(cc2F)CCO3)nsc1NC(=O)NCCCCN1CCCC1 [Compound T071]	N
3. COc1ccc(F)c(COc2nsc(NC(=O)NCCCCN3CCC(F)(F)CC3)c2C(N)=O)c1F [Compound T130]	N
4. NC(=O)c1c(OCc2cc(C(=O)NC3CC3)ccc2F)nsc1NC(=O)NCCCCN1CC[C@H](O)C1 [Compound T099]	Y
5. NC(=O)c1c(OCc2cc(C(=O)NC3CC3)ccc2Cl)nsc1NC(=O)NCCCCN1CCCC1 [Compound T123]	N

In plain terms: is recorded fraction unbound at 2 h, 2 μM at least 0.08 for COc1cc(OC)c(F)c(COc2nsc(NC(=O)NCCC3CCN(CCF)CC3)c2C(N)=O)c1F [Compound T126] ? N

In plain terms: is recorded fraction unbound at 2 h, 2 μM at least 0.08 for NC(=O)c1c(OCc2ccc3c(c2)COC3)nsc1NC(=O)NCCCCN1CCCC1 [Compound T072] ? N
